Target: Coagulation factor X (Homo sapiens)
Sequence (P00742 41-179 limits assumed): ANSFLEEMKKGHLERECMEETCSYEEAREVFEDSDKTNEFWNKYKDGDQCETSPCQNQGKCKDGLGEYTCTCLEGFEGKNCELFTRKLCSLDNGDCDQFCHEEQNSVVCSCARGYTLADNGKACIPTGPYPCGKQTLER
Sequence (P00742 235-488 limits assumed): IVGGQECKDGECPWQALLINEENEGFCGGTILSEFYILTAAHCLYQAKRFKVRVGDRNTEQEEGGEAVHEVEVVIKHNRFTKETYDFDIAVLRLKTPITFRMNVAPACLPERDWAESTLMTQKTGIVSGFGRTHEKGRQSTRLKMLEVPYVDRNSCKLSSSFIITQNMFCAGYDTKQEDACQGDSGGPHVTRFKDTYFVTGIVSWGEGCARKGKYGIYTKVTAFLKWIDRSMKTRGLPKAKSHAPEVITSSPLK
Test: Inhibition of recombinant factor Xa (unknown origin) using Bz-Ile-Glu-Gly-Arg-pNA as substrate preincubated for 30 mins followed by substrate addition by chromogenic assay
measurement.label: IC50

Examples from the recorded data:
molecule	IC50
CC(C)C[C@H](NC(=O)OC(c1ccccc1)C1CCNCC1)C(=O)N[C@@H](CCCNC(=N)N)C(=O)c1nc2ccccc2s1 (stereo partly drawn)	> 20 µM
CCS(=O)(=O)N1CCC(OC(=O)N[C@@H](CC(C)C)C(=O)N[C@@H](CCCNC(=N)N)C(=O)c2nc3ccccc3s2)CC1	> 20 µM

// lookup IC50 for "CC(C)C[C@H](NC(=O)OC1CCN(S(=O)(=O)c2ccccc2)CC1)C(=O)N[C@@H](CCCNC(=N)N)C(=O)c1nc2ccccc2s1"
> 20 µM
